Target: Nav1.5 channel (Homo sapiens)
Construct: expressed in transfected cells; host or cells: HEK293
Sequence (Q14524 whole entry): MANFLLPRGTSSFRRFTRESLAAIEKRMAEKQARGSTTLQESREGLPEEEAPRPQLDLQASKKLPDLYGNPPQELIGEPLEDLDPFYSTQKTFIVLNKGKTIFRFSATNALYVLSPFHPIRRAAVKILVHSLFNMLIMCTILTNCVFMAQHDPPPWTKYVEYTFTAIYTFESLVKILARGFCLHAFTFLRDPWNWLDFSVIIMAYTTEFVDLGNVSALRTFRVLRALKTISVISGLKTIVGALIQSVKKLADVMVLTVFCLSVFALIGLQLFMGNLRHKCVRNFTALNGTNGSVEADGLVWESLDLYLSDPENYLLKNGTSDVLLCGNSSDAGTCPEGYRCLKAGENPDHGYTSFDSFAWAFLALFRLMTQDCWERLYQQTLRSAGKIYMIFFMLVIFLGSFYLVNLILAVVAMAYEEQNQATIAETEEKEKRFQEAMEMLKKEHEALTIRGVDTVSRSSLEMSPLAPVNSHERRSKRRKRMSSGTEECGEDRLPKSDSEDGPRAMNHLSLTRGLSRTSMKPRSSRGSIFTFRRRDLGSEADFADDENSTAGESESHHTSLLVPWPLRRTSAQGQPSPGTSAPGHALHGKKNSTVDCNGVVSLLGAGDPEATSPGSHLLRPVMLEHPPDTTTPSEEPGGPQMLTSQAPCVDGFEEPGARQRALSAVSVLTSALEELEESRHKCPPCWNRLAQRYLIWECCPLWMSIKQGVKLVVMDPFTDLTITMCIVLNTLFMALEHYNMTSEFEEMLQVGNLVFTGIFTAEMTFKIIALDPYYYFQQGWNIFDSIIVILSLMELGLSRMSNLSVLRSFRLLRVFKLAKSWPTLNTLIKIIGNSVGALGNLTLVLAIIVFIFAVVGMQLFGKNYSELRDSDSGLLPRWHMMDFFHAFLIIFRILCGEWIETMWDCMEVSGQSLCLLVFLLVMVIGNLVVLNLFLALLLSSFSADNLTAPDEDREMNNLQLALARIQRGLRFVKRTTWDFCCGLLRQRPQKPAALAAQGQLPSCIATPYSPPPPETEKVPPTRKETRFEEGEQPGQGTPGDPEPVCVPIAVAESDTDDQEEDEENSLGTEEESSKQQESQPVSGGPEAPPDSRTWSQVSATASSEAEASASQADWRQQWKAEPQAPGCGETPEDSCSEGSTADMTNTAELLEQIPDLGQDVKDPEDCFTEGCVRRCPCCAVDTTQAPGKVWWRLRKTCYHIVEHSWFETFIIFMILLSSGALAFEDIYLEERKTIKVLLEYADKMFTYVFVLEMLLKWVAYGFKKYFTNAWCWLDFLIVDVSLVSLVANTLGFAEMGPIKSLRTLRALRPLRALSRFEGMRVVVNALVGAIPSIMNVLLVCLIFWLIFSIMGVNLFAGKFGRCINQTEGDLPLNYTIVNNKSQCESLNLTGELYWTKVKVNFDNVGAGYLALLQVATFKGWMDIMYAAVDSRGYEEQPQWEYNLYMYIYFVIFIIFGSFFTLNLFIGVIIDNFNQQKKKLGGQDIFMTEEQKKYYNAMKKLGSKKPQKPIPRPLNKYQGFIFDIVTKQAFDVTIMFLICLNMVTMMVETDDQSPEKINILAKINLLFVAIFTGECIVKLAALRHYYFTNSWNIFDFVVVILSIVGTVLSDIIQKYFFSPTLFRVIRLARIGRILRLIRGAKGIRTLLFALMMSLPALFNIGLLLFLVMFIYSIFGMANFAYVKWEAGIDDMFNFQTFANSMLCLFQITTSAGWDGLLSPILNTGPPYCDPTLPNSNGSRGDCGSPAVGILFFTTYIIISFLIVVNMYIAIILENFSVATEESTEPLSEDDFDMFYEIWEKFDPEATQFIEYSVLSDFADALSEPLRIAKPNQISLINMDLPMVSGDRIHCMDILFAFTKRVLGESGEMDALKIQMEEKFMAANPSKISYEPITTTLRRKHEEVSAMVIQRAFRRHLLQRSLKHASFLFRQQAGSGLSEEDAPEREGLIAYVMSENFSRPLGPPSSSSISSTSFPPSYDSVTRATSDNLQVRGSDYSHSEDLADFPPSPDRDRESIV
Assay: Cardiotoxicity fluorescence-based assay, Nav1.5 channel
Format: cell-based
Conditions: HEK293 cells
READOUT_LABEL: pIC50
Note on pIC50: it is the negative log10 of concentration, concentration in mol/L.

Would you mind telling me what pIC50 value was observed for CCc1ccc(C2=C(C)C(=O)C3(O2)C(=O)NC(OC)(C(=O)c2ccccc2)C3O)o1 (centres unmarked) [azaspirofuran A] ?
4.41

---

Target: CYP2D6 (Homo sapiens, UniProt P10635)
Construct: containing Human Liver Microsomes (HLM) (0.5 mg/mL); from tissue; host or cells: human liver microsomes
Sequence (P10635 whole entry): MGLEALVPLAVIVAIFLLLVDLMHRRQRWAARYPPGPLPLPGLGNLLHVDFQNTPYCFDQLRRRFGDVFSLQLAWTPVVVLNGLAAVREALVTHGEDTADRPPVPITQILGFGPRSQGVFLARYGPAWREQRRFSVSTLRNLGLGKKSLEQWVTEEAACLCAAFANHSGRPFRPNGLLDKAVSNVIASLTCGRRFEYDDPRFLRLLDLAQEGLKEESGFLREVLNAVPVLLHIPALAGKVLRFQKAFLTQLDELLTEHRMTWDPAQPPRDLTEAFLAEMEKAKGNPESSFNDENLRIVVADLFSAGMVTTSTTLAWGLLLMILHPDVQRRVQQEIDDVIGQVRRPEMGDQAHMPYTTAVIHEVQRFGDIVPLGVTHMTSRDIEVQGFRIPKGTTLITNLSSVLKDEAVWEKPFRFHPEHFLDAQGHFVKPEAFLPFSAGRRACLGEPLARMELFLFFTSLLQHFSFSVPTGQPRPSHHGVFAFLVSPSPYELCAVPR
Test: CYP450 enzyme inhibition assay, CYP2D6
Assay type: in vitro ADME
Conditions: human liver microsomes, dextromethorphan probe
READOUT_LABEL: pIC50
pIC50 here: minus log base 10 of the concentration, concentration in moles per litre.

Requested read-out: pIC50. Entry: CCc1ccc(C2=C(C)C(=O)C3(O2)C(=O)NC(OC)(C(=O)c2ccccc2)C3O)o1 (centres unmarked)
4.63
